# Test system: anti-CD28 scFv
# ASSAY PROTOCOL: Phage binding ELISA (panning) of clonal phage on anti-CD28 scFv, with or without CD28 soluble protein
# CONDITION INFO: clonal phage supernatant; background signal
MEASURED PARAMETER: Phage binding ELISA Backgroud signal
Give only the figure.

> print(dat)
                    substance                    measured.parameter  numeric.readout
1  Phage-274 (WVSCLRHHWLECFH)  Phage binding ELISA Backgroud signal            0.781
2  Phage-283 (MDWCPRHLWNECFN)  Phage binding ELISA Backgroud signal            0.079
3  Phage-300 (MDWCPRHLWFECFF)  Phage binding ELISA Backgroud signal            0.178

Recorded Phage binding ELISA Backgroud signal (substance Phage-205 (MDWCPTDMWHHCFL) ): 0.061

Entry Phage-309 (MDWCPMFLWHECFN) ; Phage binding ELISA Backgroud signal = 0.170

// recorded Phage binding ELISA Backgroud signal for Phage-256 (MDWCPFDLWHVCYN) : 0.089

The substance identified as Phage-52 (MDWCPINLWDECFS) registered its Phage binding ELISA Backgroud signal at 0.062

Entry Phage-163 (MFWCPRYLWHECFN) ; Phage binding ELISA Backgroud signal = 0.086

Lab book: Phage binding ELISA Backgroud signal of Phage-222 (MDWCPRDQWHNCFN) noted as 0.075

Data point: Phage-318 (MDWCPMFLWDECFN) ; Phage binding ELISA Backgroud signal = 0.132

Field Phage binding ELISA Backgroud signal (entry Phage-177 (MDWCPVSLWDHCFN) ) reads 0.075

// recorded Phage binding ELISA Backgroud signal for Phage-196 (MDWCPRYMWYQCFS) : 0.079

# Phage binding ELISA Backgroud signal (substance: Phage-219 (NYWCPSSMWNRCLH) ) is 0.295

Recorded result, Phage-245 (MDWCPRNLWHLCFA) , Phage binding ELISA Backgroud signal: 0.082
